Reference source: patent US20080234202A1

Assay: Pharmacokinetics of ABS212 in Sprague-Dawley rats
Format: in vivo, rat
Conditions: Sprague-Dawley, rat, plasma; IV 1 mg/kg; read-out: volume of distribution at terminal phase
Excerpt: These samples were used for the determination of plasma parent drug concentrations by LC/MS/MS for estimating pharmacokinetic parameters and oral bioavailability.
Where a SMILES comes first, the peptide text is derived from it. [ ]: non-standard residue; d: D form. The star is where a group is joined. X2 = C[C@@H](CCC[N+](C)(C)C)C(=O)*; Tle = CC(C)(C)[C@H](N)C(=O)O
Value Type: Vd (L/kg)
Numeric only. Scale: L/kg

Lab note: measured Vd of CC(C)C[C@H](NC(=O)[C@@H](NC(=O)[C@H](Cc1ccc(O)cc1)NC(=O)[C@@H]1CCCN1C(=O)[C@H](CCCNC(=N)N)NC(=O)[C@@H](C)CCC[N+](C)(C)C)C(C)(C)C)C(=O)O [ABS-212.2HCL] (X2-RPY[Tle]L-OH) was 0.43
